Data provenance: ChEMBL document CHEMBL3988442

Target: Shiga toxin 2 (Escherichia coli O157:H7) (UniProt P09385+P09386)
Assay: E. coli 0.157:H7 Shiga Toxin SOP - stx2 screening assay
Assay type: functional
Design: scale not given: direction of the effect not stated beside the values
Details: 30 µM
Measurement type: Percent Effect (%)
Your answer should be a plain number; it is taken to be in %.

[[record]]
compound = "COc1ccccc1OCC(=O)Nc1ncccc1Cl"
target_or_test_system = "Shiga toxin 2 (Escherichia coli O157:H7) (UniProt P09385+P09386)"
measurement_type = "Percent Effect"
assay_value = 1.67


Percent Effect recorded for this compound, CC(C)c1nc(CN(C)C2CCN(CC(F)(F)F)C2)no1 (configuration not stated) , is -4.21

Percent Effect recorded for this compound, COCCc1noc(CNCC2CCCN2c2cccnn2)n1 (configuration not stated) , is -3.58

Percent Effect recorded for this compound, CNC1CCCN(Cc2noc(C3CC3)n2)C1 (configuration not stated) , is -5.27

Percent Effect recorded for this compound, CCn1cnnc1C1CCN(C(=O)c2cnc3ccccc3n2)CC1 , is -10.9

Percent Effect recorded for this compound, CN(Cc1ccccn1)C(=O)[C@]12COC[C@H]1CN(Cc1cnn(C)c1)C2 , is -6.88

Percent Effect recorded for this compound, COCC(=O)NCc1cc(=O)n2c(n1)CN(Cc1ccsc1)CCC2 , is 10

###

// Percent Effect lookup, one value per entry
Target: Aspartate--tRNA(Asp/Asn) ligase (Mycobacterium tuberculosis (strain ATCC 25618 / H37Rv)); further: in the data most compounds retested in dose-response had high values
Experiment: Assay for Asp RNA synthetase-1 from Mycobacterium tuberculosis
Type: functional
Design: scale not given: direction of the effect not stated beside the values
Conditions: 30 µM
Your answer should be a plain number; it is taken to be in %.

Below: 10 compounds and their reported Percent Effect.
[[record]]
compound = "CCN1CCN(S(=O)(=O)c2ncn(C)c2Cl)CC1"
measurement_type = "Percent Effect"
assay_value = -2.51

[[record]]
compound = "Cc1cccc(Nc2nccnc2C2CCCN2CC(=O)N(C)C)n1 (centres undefined)"
measurement_type = "Percent Effect"
assay_value = -7.13

[[record]]
compound = "Cc1cc(CN2CC[C@H]3OCC[C@@]3(C(=O)NC(C)C)C2)no1"
measurement_type = "Percent Effect"
assay_value = 0.364

[[record]]
compound = "Cc1nc2c(c(N3CC=CC3)n1)CCN(Cc1ccoc1)CC2"
measurement_type = "Percent Effect"
assay_value = -8.35

[[record]]
compound = "CCc1nccn1C1CCCN(C(=O)Cc2ccc(OC)c(F)c2)C1 (centres undefined)"
measurement_type = "Percent Effect"
assay_value = -7.86

[[record]]
compound = "CCC1CN(C(=O)Nc2cnc3c(cnn3C(C)C)c2)CCO1 (centres undefined)"
measurement_type = "Percent Effect"
assay_value = 0.932

[[record]]
compound = "CCn1cc(CN2CCCN(C(=O)Cc3ccc(C)nc3)CC2)cn1"
measurement_type = "Percent Effect"
assay_value = -1.87

[[record]]
compound = "Cc1cnn(C2CCCN(C(=O)c3sccc3-n3cnnn3)C2)c1 (centres undefined)"
measurement_type = "Percent Effect"
assay_value = -2.01

[[record]]
compound = "CN(C)C(=O)COC1COC2(CCN(S(C)(=O)=O)CC2)C1 (centres undefined)"
measurement_type = "Percent Effect"
assay_value = -4.11

[[record]]
compound = "O=C(COCC1CC1)N1CCCC(n2ccnc2)C1 (centres undefined)"
measurement_type = "Percent Effect"
assay_value = 0.946


Percent Effect recorded for this compound, Cc1cc(C)c(CNC(=O)NCC(O)COc2ccccc2)c(=O)[nH]1 (centres undefined) , is 4.61

Percent Effect recorded for this compound, Cc1ncsc1CN1C[C@@H](OCC2CC2)[C@H]2OCCC[C@H]21 , is -6.67

Percent Effect recorded for this compound, O=C1CC[C@@H]2[C@@H](CCN2C(=O)c2ccsc2)N1CC1CC1 , is -5.94

###

// Percent Effect lookup, one value per entry
Species: Homo sapiens
Test: To identify inhibition of the IFN signalling (Jak-Stat) pathway via expression of an eGFP reporter gene under the control of an IFN-stimulated response element (ISRE) containing MxA promoter.
Format: functional
Set-up: scale not given: direction of the effect not stated beside the values
Details: 30 µM
Your answer should be a plain number; it is taken to be in %.

[[record]]
compound = "CC(C)c1nccc([C@H]2C[C@@H]3CCN(Cc4ccoc4)C[C@H]3O2)n1"
measurement_type = "Percent Effect"
assay_value = -14.2

[[record]]
compound = "CCc1nc(CC(=O)N2CCCC2CN2CCCC2)cs1 (stereo not given)"
measurement_type = "Percent Effect"
assay_value = -4.98

[[record]]
compound = "COc1cc(CNCC(O)c2ccc(C)cc2)cc2c1OCCO2 (stereo not given)"
measurement_type = "Percent Effect"
assay_value = 8.18

[[record]]
compound = "O=C(Cc1ccccn1)N1CCN2C[C@H](Oc3cccc(F)c3)C[C@H]2C1"
measurement_type = "Percent Effect"
assay_value = 18.6


Query compound follows.
Percent Effect recorded for this compound, CC(C)(C)n1cc(C2=CCN(CCc3ccccc3)CC2)cn1 , is 11.7

###

// Percent Effect lookup, one value per entry
Target: Aspartate--tRNA(Asp/Asn) ligase (Mycobacterium tuberculosis (strain ATCC 25618 / H37Rv)); further: in the data most compounds retested in dose-response had high values
Assay: Assay for Asp RNA synthetase-1 from Mycobacterium tuberculosis
Format: functional
Design: scale not given: direction of the effect not stated beside the values
Conditions: 30 µM
Your answer should be a plain number; it is taken to be in %.

Below: 5 compounds and their reported Percent Effect.
[[record]]
compound = "CC(C)S(=O)(=O)NCC1CCCN(C(=O)c2cccnc2)C1 (centres undefined)"
assay_value = -0.834

[[record]]
compound = "Cn1ccnc1CN1CCCN(C(=O)c2ccc3c(c2)COC3)CC1"
assay_value = 0.393

[[record]]
compound = "COc1ccc(CN(C)CC(=O)NC2(C)CCS(=O)(=O)C2)cc1F (centres undefined)"
assay_value = 10.4

[[record]]
compound = "CCSCCC(=O)Nc1ncn(CC(=O)NCc2ccccc2)n1"
assay_value = -2.33

[[record]]
compound = "O=C(CN(Cc1ccccc1)CC1CCOCC1)NC(=O)NC1CC1"
assay_value = 0.182


Percent Effect recorded for this compound, CC(C)N(C)CC(=O)N1CCCC(c2ccc(C(=O)O)cc2)C1 (centres undefined) , is -4.14

Percent Effect recorded for this compound, CN(C)CCN1C[C@@H]2CN(C(=O)c3ccsc3)C[C@@H]2C1=O , is -4.34

Percent Effect recorded for this compound, CC(C)Oc1ccccc1C1CC(=O)Nc2c1cnn2C (centres undefined) , is 2.79

Percent Effect recorded for this compound, Cc1nccn1CCC1CCCCN1Cc1ccc(N(C)C)nc1 (centres undefined) , is 2.17

Percent Effect recorded for this compound, Cc1ncccc1CNCC1CCN(CC(O)c2ccccc2)CC1 (centres undefined) , is 0.218

Percent Effect recorded for this compound, COc1ccccc1OCC(=O)NS(=O)(=O)c1ccc(C)s1 , is -0.394

Percent Effect recorded for this compound, CN1C(=O)C(c2cccnc2)CC12CCN(C(=O)c1cccn1C)CC2 (centres undefined) , is 0.99

Percent Effect recorded for this compound, CCS(=O)(=O)N1CCC[C@]2(C(=O)N(C)C)CN(c3ccccn3)C[C@@H]2C1 , is 0.903

Percent Effect recorded for this compound, O=C(NCc1cnc2n1CCN(c1ncc(F)cn1)CC2)C1CCC1 , is -2.16

Percent Effect recorded for this compound, Cn1ccnc1CN1CCC2(COCCN(Cc3ccsc3)C2)C1 (centres undefined) , is -5.11

Percent Effect recorded for this compound, OC1CCCN(Cc2c(-c3ccco3)[nH]c3ncccc23)C1 (centres undefined) , is -0.134

Percent Effect recorded for this compound, Cc1ccc(N2CC[C@H]3C[C@@H](C(=O)N4CCOCC4)O[C@H]3C2)nn1 , is 0.749

Percent Effect recorded for this compound, CN(CC(=O)N1CCC(C(O)c2ccccc2)CC1)c1cnccn1 (centres undefined) , is -0.321

Percent Effect recorded for this compound, CNc1ccc(CC2CCCN(C(=O)c3cncnc3C)C2)nn1 (centres undefined) , is 0.485

###

Molecular target: Sialic acid-binding Ig-like lectin 9 (Homo sapiens)
Assay: Hs-Siglec9 ALPHAscreen SOP 20170721
Design: scale not given: direction of the effect not stated beside the values
Settings: 10 µM
// Percent Effect lookup, one value per entry
Your answer should be a plain number; it is taken to be in %.

Below: 4 compounds and their reported Percent Effect.
[[record]]
smi = "O=C(C1CC1)N1CCC2(CC1)OCCO2"
result_units = "%"
assay_value = -9.69

[[record]]
smi = "c1cc(CO[C@@H]2CC[C@H]3[C@H]2OCCN3CC2CCOCC2)ccn1"
result_units = "%"
assay_value = -13.8

[[record]]
smi = "COCCN1C[C@H]2[C@@H](C1)N(C(=O)COc1ccccc1)CC[C@H]2OC"
result_units = "%"
assay_value = 0.149

[[record]]
smi = "COc1ccc(Cl)cc1CC(=O)N1CCN(CCO)CC1"
result_units = "%"
assay_value = 0.349


Query compound follows.
// assay Sialic acid-binding Ig-like lectin 9 (Homo sapiens), entry Cc1noc([C@@H]2C[C@H]3CN(Cc4cc(C)on4)C[C@H]3O2)n1 , Percent Effect value = -5.26
